Below is a list of entries, each paired with its recorded growth value.
- System: HS 578T breast
- assayNotes: NCI-60 one-dose screen, 48 h (100 = growth as untreated, 0 = no growth, -100 = all killed)
- conditionLabel: 10 µM unless noted
This is part of a sample that, as a whole, favours compounds with a hit. Of some 83,000 tested, about 20% had one in any assay.
Report only the number, with the unit % understood.

structurestring=COc1ccc2ccccc2c1/C=N/N1CCCCC1 assayendpoint=growth units=% readoutvalue=98.5
structurestring=Nc1n[nH]c(=S)n1-c1ccc(Cl)cc1 assayendpoint=growth units=% readoutvalue=100

The observed growth for "COc1ccc2nc(Cl)cc(C)c2c1" when tested with HS 578T breast stands at 113

* * *

- System: NCI-H23 lung
- assayNotes: NCI-60 one-dose screen, 48 h (100 = growth as untreated, 0 = no growth, -100 = all killed)
- conditionLabel: 10 µM unless noted
About 83,000 compounds went through this panel and 20% of them were active in at least one assay; those are over-represented in the sample as a whole.
assayEndpoint: growth (%)
Report only the number, with the unit % understood.

Solved entries:
molecule=COc1cc(C(=O)N/N=C/c2ccc(N(C)C)cc2)cc(OC)c1OC assayedtarget="NCI-H23 lung" readoutvalue=19.4
molecule=CCOC(=O)c1sc(N)nc1-c1ccccc1 assayedtarget="NCI-H23 lung" readoutvalue=101
molecule=Cc1n[nH]c(=O)n(/N=C\c2c[nH]c3ccccc23)c1=O assayedtarget="NCI-H23 lung" readoutvalue=102
molecule=Nc1ccc2ccc(N)cc2c1 assayedtarget="NCI-H23 lung" readoutvalue=69.7

Consider "O=[N+]([O-])c1ccc(-n2[nH]nnc2=S)cc1" . Its measured growth is 98.5

Consider Nc1ccccc1SC1CC(=O)N(c2cccc3ccccc23)C1=O (stereo not given) . Its measured growth is 101

* * *

- Test system: CCRF-CEM leukemia
- assayNotes: NCI-60 one-dose screen, 48 h
- conditionLabel: 10 µM unless noted
About 83,000 compounds went through this panel and 20% of them were active in at least one assay; those are over-represented in the sample as a whole. Activity calls are given as the source filed them. The calls were made as follows: active = growth percent below 10; inactive = the rest.
Pick one and only one: active, inactive

structurestring=COc1c(/C(C)=N/N=c2sc(C(C)=O)nn2-c2ccc(Cl)cc2)c(Oc2ccccc2)c(OC)c2occc12 classlabel=inactive
structurestring=CC12CCC(CC1)C(C)(C)O2 classlabel=inactive
structurestring=Fc1ccccc1Nc1n[nH]c(=S)s1 classlabel=active

I would be grateful if you could indicate the recorded call for "O=C1c2ccccc2C(=O)N1/N=C/c1ccc2c(c1)OCO2" . inactive

* * *

- System: HOP-92 NSCLC
- assayNotes: NCI-60 one-dose screen, 48 h (100 = growth as untreated, 0 = no growth, -100 = all killed)
- conditionLabel: 10 µM unless noted
About 83,000 compounds went through this panel and 20% of them were active in at least one assay; those are over-represented in the sample as a whole.
assayEndpoint: growth (%)
Report only the number, with the unit % understood.

Solved entries:
compound="CCCCCN(CCCCC)CC(O)c1cc2c(c3ccccc13)CCCC2 (centres undefined)" readoutvalue=-14.4
compound=N#CC(C#N)=C/C=C/c1cccc([N+](=O)[O-])c1 readoutvalue=23.3
compound="O=CC(O)C(O)C(O)CO (centres undefined)" readoutvalue=119
compound=O=C(Nc1ccc(Cl)cc1)c1cc2ccccc2cc1O readoutvalue=-9.86
compound=S=C1SCN(Cc2ccccc2)CN1Cc1ccccc1 readoutvalue=37.3

Consider "Cc1n[nH]c(=O)n(/N=C\c2c[nH]c3ccccc23)c1=O" . Its measured growth is 84.2

Consider CC(CN=Cc1ccccc1O)N=Cc1ccccc1O (centres undefined) . Its measured growth is 85.4

Consider "O=C(CCl)c1ccc2c(c1)Nc1ccccc1S2" . Its measured growth is 101

Consider "Oc1ccc(/C=C/c2ccccc2)cc1" . Its measured growth is 95.7

Consider "CCOC(=O)Nc1ccc2c(c1)/C(=N\NC(N)=S)c1ccccc1-2" . Its measured growth is 71.1

Consider CC1CCCC(=O)O1 (centres undefined) . Its measured growth is 91.8

Consider "CCOC(=O)C(CNc1ccccc1)C(=O)OCC" . Its measured growth is 85.6

Consider "CC(=O)c1ccc2c(c1)N(CCCN1CCN(CCO)CC1)c1ccccc1S2" . Its measured growth is -3.7

Consider "Cc1ccc(S(=O)(=O)NCN2C(=O)c3ccccc3C2=O)cc1" . Its measured growth is 109
